# System: Erythrocyte
# assay-details: Hemolytic activity against human erythrocytes assessed as morphological changes at IC50 concentration up to 72 hrs
# Format: ADME, cell-based
observation-type: Activity

• COc1cc(C(=O)O[C@H]2[C@H](O[C@@H]3[C@@H](OC(C)=O)[C@H](O[C@H]4C[C@H]5[C@@H]6CC=C7C[C@@H](O)CC[C@]7(C)[C@H]6CC[C@]5(C)[C@H]4[C@H](C)C(=O)CCC(C)C)OC[C@@H]3O)OC[C@@H](O)[C@@H]2O)cc(OC)c1OC = Non-Toxic
• CC(=O)O[C@H]1[C@H](O[C@H]2C[C@H]3[C@@H]4CC=C5C[C@@H](O)CC[C@]5(C)[C@H]4CC[C@]3(C)[C@@]2(O)[C@H](C)C(=O)CCC(C)C)OC[C@H](O)[C@@H]1O[C@@H]1OC[C@@H](O)[C@H](O)[C@H]1OC(=O)/C=C/c1ccccc1 = Non-Toxic
• COc1ccc(C(=O)O[C@H]2[C@H](O[C@@H]3[C@@H](OC(C)=O)[C@H](O[C@H]4C[C@H]5[C@@H]6CC=C7C[C@@H](O)CC[C@]7(C)[C@H]6CC[C@]5(C)[C@@]4(O)[C@H](C)C(=O)CCC(C)C)OC[C@@H]3O)OC[C@@H](O)[C@@H]2O)cc1OC = Non-Toxic

====

# System: A2780
# assay-details: Antiproliferative activity against human A2780 cells assessed as reduction in cell viability after 2 days hrs by AlamarBlue assay
# Assay type: functional, cell-based
# test-context: A2780, 48 h
pIC50: −log10 of the molar value.
Measured pIC50 values are reported for all entries that follow.
observation-type: pIC50

- COc1cc(C(=O)O[C@H]2[C@H](O[C@@H]3[C@@H](OC(C)=O)[C@H](O[C@H]4C[C@H]5[C@@H]6CC=C7C[C@@H](O)CC[C@]7(C)[C@H]6CC[C@]5(C)[C@@]4(O)[C@H](C)C(=O)CCC(C)C)OC[C@@H]3O)OC[C@@H](O)[C@@H]2O)cc(OC)c1OC: 7.05
- COc1ccc(C(=O)O[C@H]2[C@H](O[C@@H]3[C@@H](OC(C)=O)[C@H](O[C@H]4C[C@H]5[C@@H]6CC=C7C[C@@H](O)CC[C@]7(C)[C@H]6CC[C@]5(C)[C@H]4[C@H](C)C(=O)CCC(C)C)OC[C@@H]3O)OC[C@@H](O)[C@@H]2O)cc1OC: 7.00
- COc1ccc(C(=O)O[C@H]2[C@H](O[C@H]3C[C@H]4[C@@H]5CC=C6C[C@@H](O)CC[C@]6(C)[C@H]5CC[C@]4(C)[C@@]3(O)[C@H](C)C(=O)CCC(C)C)OC[C@H](O)[C@@H]2O)cc1OC: 6.85
- CC(=O)O[C@H]1[C@H](O[C@H]2C[C@H]3[C@@H]4CC=C5C[C@@H](O)CC[C@]5(C)[C@H]4CC[C@]3(C)[C@H]2[C@H](C)C(=O)CCC(C)C)OC[C@H](O)[C@@H]1O[C@@H]1OC[C@@H](O)[C@H](O)[C@H]1OC(=O)/C=C/c1ccccc1: 7.00
- COc1ccc(C(=O)O[C@H]2[C@H](O[C@@H]3[C@@H](OC(C)=O)[C@H](O[C@H]4C[C@H]5[C@@H]6CC=C7C[C@@H](O)CC[C@]7(C)[C@H]6CC[C@]5(C)[C@@]4(O)[C@H](C)C(=O)CCC(C)C)OC[C@@H]3O)OC[C@@H](O)[C@@H]2O)cc1OC: 7.00
- COc1cc(C(=O)O[C@H]2[C@H](O[C@@H]3[C@@H](OC(C)=O)[C@H](O[C@H]4C[C@H]5[C@@H]6CC=C7C[C@@H](O)CC[C@]7(C)[C@H]6CC[C@]5(C)[C@H]4[C@H](C)C(=O)CCC(C)C)OC[C@@H]3O)OC[C@@H](O)[C@@H]2O)cc(OC)c1OC: 7.00
- CC(=O)O[C@H]1[C@H](O[C@H]2C[C@H]3[C@@H]4CC=C5C[C@@H](O)CC[C@]5(C)[C@H]4CC[C@]3(C)[C@@]2(O)[C@H](C)C(=O)CCC(C)C)OC[C@H](O)[C@@H]1O[C@@H]1OC[C@@H](O)[C@H](O)[C@H]1OC(=O)/C=C/c1ccccc1: 7.00

====

# System: Erythrocyte
# assay-details: Hemolytic activity against human erythrocytes assessed as morphological changes at IC50 concentration up to 72 hrs
# Format: ADME, cell-based
observation-type: Activity

* COc1ccc(C(=O)O[C@H]2[C@H](O[C@@H]3[C@@H](OC(C)=O)[C@H](O[C@H]4C[C@H]5[C@@H]6CC=C7C[C@@H](O)CC[C@]7(C)[C@H]6CC[C@]5(C)[C@H]4[C@H](C)C(=O)CCC(C)C)OC[C@@H]3O)OC[C@@H](O)[C@@H]2O)cc1OC | Non-Toxic
* COc1ccc(C(=O)O[C@H]2[C@H](O[C@H]3C[C@H]4[C@@H]5CC=C6C[C@@H](O)CC[C@]6(C)[C@H]5CC[C@]4(C)[C@@]3(O)[C@H](C)C(=O)CCC(C)C)OC[C@H](O)[C@@H]2O)cc1OC | Non-Toxic
* COc1cc(C(=O)O[C@H]2[C@H](O[C@@H]3[C@@H](OC(C)=O)[C@H](O[C@H]4C[C@H]5[C@@H]6CC=C7C[C@@H](O)CC[C@]7(C)[C@H]6CC[C@]5(C)[C@@]4(O)[C@H](C)C(=O)CCC(C)C)OC[C@@H]3O)OC[C@@H](O)[C@@H]2O)cc(OC)c1OC | Non-Toxic
* CC(=O)O[C@H]1[C@H](O[C@H]2C[C@H]3[C@@H]4CC=C5C[C@@H](O)CC[C@]5(C)[C@H]4CC[C@]3(C)[C@H]2[C@H](C)C(=O)CCC(C)C)OC[C@H](O)[C@@H]1O[C@@H]1OC[C@@H](O)[C@H](O)[C@H]1OC(=O)/C=C/c1ccccc1 | Non-Toxic
